System: MS2 coat protein
Assay: apparent KD of MS2 coat protein; designed switch direction (-1 OFF switch, 1 ON switch): -1; higher = weaker reporter binding
Details: input ligand: FMN 200 uM
Tick true (1) if apparent KD of MS2 coat protein is 200 nM or greater. Tick false (0) if apparent KD of MS2 coat protein is less than 200 nM.

sequence.record | classification
GCAGUUCGAGUUAGGAUAUGAUGUUAAUUCGGAUAUCAGAAGGAACUUGAGGAUCACCCAAGUAUAGAUGUUGU [JR_BMEx4_Sub061] (Eterna round: R97, puzzle: Brourd's mod of Exclusion 4) | false (0)
GAUCAUGCAGGAUAUACAUGGAACAUGUAAACAUGAAUUUCACAUGAGGAUCACCCAUGUAGAAGGGCAUGAUC [Omei Ex2 A13] (Eterna round: R97, puzzle: Exclusion 2) | true (1)
AACCAGCGAGGAUAUUGUUGAUAAAACAUGAGGAUCACCCAUGUCACGUGAUCUUCCCAACAAGAAGGUGCACUAA [Xeoratdior] (Eterna round: R97, puzzle: Exclusion 5) | true (1)
GCUGUAGAAGGAUAUGCUUCGACUCACAUGAGGAUCACCCAUGUCUUCGUGCAGUCGUCUGCAGAAGGUCUCCAGU [EX5 C.8] (Eterna round: R97, puzzle: Exclusion 5) | true (1)

Consider the additional sequence presented here.
## Task I'd appreciate it if you could say whether GGAUCGAAUGUGAGGAUAUGCUGGUCCUUGGAUCAGCAGAAGGCACAUGAGGAUCACCCAUGUGGUUCCGAUCC (Eterna round: R97, puzzle: Brourd's mod of Exclusion 4) has apparent KD of MS2 coat protein at least equal to 200 nM.
## Result false (0)

====

Tested on: MS2 coat protein
Assay: apparent KD of MS2 coat protein; designed switch direction (-1 OFF switch, 1 ON switch): -1; higher = weaker reporter binding
Settings: input ligand: FMN 200 uM
Short version: apparent KD of MS2 coat protein at least 50 nM is 1, less is 0.

Before answering, review these 4 worked examples.
sequence.record | experimental.target | classification
UCCUCACUUGAGGAUCACCCAAGUCAGGAUAUUCACUGAACUGCGUAGCAGUUCGGCCGAAGAAGGGAUUCGGG [Lacequla] (Eterna round: R97, puzzle: Exclusion 1) | MS2 coat protein | 1
AUACGCCAGGUAGGAUAUAGUACGUCGGCAACAUGAGGAUCACCCAUGUGGCCUCGUGUCUGGCACUAGAAGGGCCGAGGCCUU [Raatalave] (Eterna round: R96, puzzle: Exclusion NG 2) | MS2 coat protein | 0
ACAUUACAUGAGGAUCACCCAUGUGAGGAUAUGGUGCGGUAGUGUCCUGUCGCGUACACCAGAAGGCGCGGGUG [1st #47] (Eterna round: R97, puzzle: Exclusion 1) | MS2 coat protein | 1
AAAUAACAAGCAAUAAACCACAUGAGGAUCACCCAUGUAAAGGGUGAAUCGUCCACCCAAAAAAAAAAAAAAAAAUA [Mat - Sensor v2 - Eli mod - 147] (Eterna round: R96, puzzle: Sensor v2, turn-off variant) | MS2 coat protein | 0

## Task Item CAGUACAGAGGAUAUACAUGAGGAUCACCCAUGUGUUUCAGCUAGGAGACUAGCGAAAGUAGAAGGCUGUACUU [salish99_ex3_r4_002] (Eterna round: R97, puzzle: Exclusion 3) with apparent KD of MS2 coat protein of 50 nM or above?
## Result 0
